Data provenance: PubChem BioAssay AID1159580

# PROTOCOL DETAILS: chemical genetic growth profiling, strain panel (AID 1159580);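 note: tested at 20 µM; growth read once vehicle control cultures reached saturation at 30 °C; 1 = growth at the plate median or of vehicle wells; lower values mean less growth of the strain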
# REPORTED CONDITIONS: S. cerevisiae deletion strains, growth OD, locus YDR335W, strain msn5, stronger effect = lower value
Screen size: about 5,500 compounds; about 2,000 (36%) were called active. Roughly 18% stayed inconclusive and do not appear here. The list shows a part of the results.
Entries and their measured normalized growth follow.

COMPOUND | normalized growth
CN1CCN2c3ccccc3Cc3ccccc3C2C1 (configuration not stated) | 1 (inactive)
COc1ccc(-c2coc3cc(OC(C)=O)cc(OC(C)=O)c3c2=O)cc1 | 0.967 (inactive)
Nc1nc(N)c2nc(-c3ccccc3)c(N)nc2n1 | 1 (inactive)
COc1c2c(cc3c1OCO3)CC[N+](C)=C2 | 0.996 (inactive)
COC(=O)C1=C(C)NC(C)=C(C(=O)OCC(C)C)C1c1ccccc1[N+](=O)[O-] (configuration not stated) | 0.814 (active)
S=c1ccss1 | 0.992 (inactive)
OC1C(O)C(O)C(O)C(O)C1O (configuration not stated) | 1 (inactive)
COc1ccc(-c2cc(=O)c3ccccc3o2)cc1 | 0.902 (active)
C[n+]1cc2c3c(ccc2c2ccc4cc5c(cc4c21)OCO5)OCO3 | 0.714 (active)
CN(C)CCC=C1c2ccccc2CCc2ccccc21 | 0.973 (inactive)
CC1(C)O[C@@H]2CC3C4CCC5=CC(=O)C=C[C@]5(C)[C@@]4(F)[C@@H](O)C[C@]3(C)[C@]2(C(=O)CO)O1 (some centres not stated) | 1.02 (inactive)
COc1ccc(-c2cc(=O)c3ccccc3o2)cc1OC | 0.925 (inactive)

* * *

# PROTOCOL DETAILS: chemical genetic growth profiling, strain panel (AID 1159580);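 note: tested at 20 µM; growth read once vehicle control cultures reached saturation at 30 °C; 1 = growth at the plate median or of vehicle wells; lower values mean less growth of the strain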
# REPORTED CONDITIONS: S. cerevisiae deletion strains, growth OD, locus YIL073C, strain SPO22, stronger effect = lower value
Out of some 5,500 compounds screened, about 2,000 (36%) were called active. Another 18% or so got no clear call; they are omitted. Some of the results follow.
Entries and their measured normalized growth follow.

COMPOUND | normalized growth
N[C@@H]1CONC1=O | 1.02 (inactive)
CCC(CCC(C)[C@H]1CCC2C3CC=C4C[C@@H](O)CC[C@]4(C)C3CC[C@@]21C)C(C)C (stereo partly specified) | 1.02 (inactive)
CN(N=O)C(=O)N[C@@H]1[C@@H](O)[C@H](O)[C@@H](CO)O[C@@H]1O | 1.14 (inactive)
COc1ccc(C(=O)/C=C/c2ccccc2)cc1 | 0.889 (inactive)
CCC(/C=C/[C@@H](C)[C@H]1CCC2C3CC=C4C[C@@H](O)CC[C@]4(C)C3CC[C@@]21C)C(C)C (stereo partly specified) | 1 (inactive)
COc1cc(O)c2c(=O)c(-c3ccc(O)cc3)coc2c1 | 0.818 (inactive)

* * *

# PROTOCOL DETAILS: chemical genetic growth profiling, strain panel (AID 1159580);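 note: tested at 20 µM; growth read once vehicle control cultures reached saturation at 30 °C; 1 = growth at the plate median or of vehicle wells; lower values mean less growth of the strain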
# REPORTED CONDITIONS: S. cerevisiae deletion strains, growth OD, locus YDR502C, strain sam2, stronger effect = lower value
Hit rate of the full screen: of about 5,500 compounds, about 2,000 (36%) were called active. Another 18% or so got no clear call; they are omitted. This is one part of the list.

COMPOUND | normalized growth
O=c1oc2ccccc2c(O)c1Cc1c(O)c2ccccc2oc1=O | 0.982 (inactive)
COc1c2c(cc3c1OCO3)CC[N+](C)=C2 | 1.01 (inactive)
COc1ccc(-c2cc(=O)c3ccccc3o2)cc1 | 0.757 (active)
CC(C)c1ccc2c(c1O)CC[C@H]1C3=C(CC[C@]21C)C(=O)OC3 | 0.913 (active)
O=c1c(-c2cc(O)c(O)c(O)c2)coc2cc(O)c(O)c(O)c12 | 0.931 (inactive)
COc1ccc(-c2coc3cc(O)cc(O)c3c2=O)cc1 | 0.287 (active)
NS(=O)(=O)c1cc2c(cc1C(F)(F)F)NCNS2(=O)=O | 0.988 (inactive)
CC1=C2C(=CO[C@H](C)[C@H]2C)C(=O)C(C(=O)O)=C1O | 0.971 (inactive)
CC(C)Oc1ccc2c(=O)cc(-c3ccccc3)oc2c1 | 0.904 (active)
NC(=O)CC[C@@H](N)C(=O)O | 1.02 (inactive)
CC[N+]1(C)CCCC(OC(=O)C(O)(c2ccccc2)c2ccccc2)C1 (centres undefined) | 1.01 (inactive)
CCN(CCCCOC(=O)c1ccc(OC)c(OC)c1)C(C)Cc1ccc(OC)cc1 (centres undefined) | 0.98 (inactive)
O=C1CC[C@]23C=CC(=O)NCCCCNCCCNC(=O)/C=C/c4ccc(c2c4)O[C@@H]3C1 | 0.963 (inactive)
CC1(C)O[C@@H]2CC3C4CCC5=CC(=O)C=C[C@]5(C)[C@@]4(F)[C@@H](O)C[C@]3(C)[C@]2(C(=O)CO)O1 (some centres undefined) | 0.999 (inactive)
CCC1C2CC3C4N(C)c5ccccc5C45CC(C2C5OC(C)=O)N3C1OC(C)=O (centres undefined) | 1.02 (inactive)
CCC/C=C/C=C/[C@@H]1C[C@@H](O)[C@@H](O)C(=O)[C@H]1C=O | 0.976 (inactive)
CC1(C)O[C@@H]2CC3C4C[C@H](F)C5=CC(=O)C=C[C@]5(C)[C@@]4(F)[C@@H](O)C[C@]3(C)[C@]2(C(=O)CO)O1 (some centres undefined) | 1.01 (inactive)
COc1ccc(-c2cc(=O)c3ccccc3o2)cc1OC | 0.925 (inactive)
CN(C)CCC=C1c2ccccc2CCc2ccccc21 | 0.992 (inactive)
CC1(C)O[C@@H]2CC3C4C[C@H](F)C5=CC(=O)C=CC5(C)C4C(O)CC3(C)[C@]2(C(=O)CO)O1 (some centres undefined) | 0.991 (inactive)
C[n+]1cc2c3c(ccc2c2ccc4cc5c(cc4c21)OCO5)OCO3 | 0.0731 (active)
O=C1CCc2cc(OCCCCc3nnnn3C3CCCCC3)ccc2N1 | 1.02 (inactive)
COc1ccc(-c2cc(=O)c3c(OC)cccc3o2)cc1 | 1.01 (inactive)
Cc1coc2ccccc2c1=O | 1.02 (inactive)
Nc1nc(N)c2nc(-c3ccccc3)c(N)nc2n1 | 1 (inactive)
CC(C)[C@]12O[C@H]1[C@@H]1O[C@@]13[C@@]1(C)CCC4=C(COC4=O)[C@@H]1C[C@@H]1O[C@@]13C2=O | 1.01 (inactive)
CCCN1C[C@H](CSC)C[C@@H]2c3cccc4[nH]cc(c34)C[C@H]21 | 1.01 (inactive)
CN(C)CCC=C1c2ccccc2C=Cc2ccccc21 | 0.996 (inactive)
COc1ccc2cc3[n+](cc2c1OC)CCc1cc2c(cc1-3)OCO2 | 0.345 (active)
